Molecular target: recombinant human Meningioma Expressed Antigen 5 (MGEA5), also referred to as O-GlcNAcase (OGA) (Homo sapiens)
Construct: Full length OGA enzyme was purchased at OnGene (cat #TP322411); purchased OnGene (so in the source)
Sequence (O60502 whole entry): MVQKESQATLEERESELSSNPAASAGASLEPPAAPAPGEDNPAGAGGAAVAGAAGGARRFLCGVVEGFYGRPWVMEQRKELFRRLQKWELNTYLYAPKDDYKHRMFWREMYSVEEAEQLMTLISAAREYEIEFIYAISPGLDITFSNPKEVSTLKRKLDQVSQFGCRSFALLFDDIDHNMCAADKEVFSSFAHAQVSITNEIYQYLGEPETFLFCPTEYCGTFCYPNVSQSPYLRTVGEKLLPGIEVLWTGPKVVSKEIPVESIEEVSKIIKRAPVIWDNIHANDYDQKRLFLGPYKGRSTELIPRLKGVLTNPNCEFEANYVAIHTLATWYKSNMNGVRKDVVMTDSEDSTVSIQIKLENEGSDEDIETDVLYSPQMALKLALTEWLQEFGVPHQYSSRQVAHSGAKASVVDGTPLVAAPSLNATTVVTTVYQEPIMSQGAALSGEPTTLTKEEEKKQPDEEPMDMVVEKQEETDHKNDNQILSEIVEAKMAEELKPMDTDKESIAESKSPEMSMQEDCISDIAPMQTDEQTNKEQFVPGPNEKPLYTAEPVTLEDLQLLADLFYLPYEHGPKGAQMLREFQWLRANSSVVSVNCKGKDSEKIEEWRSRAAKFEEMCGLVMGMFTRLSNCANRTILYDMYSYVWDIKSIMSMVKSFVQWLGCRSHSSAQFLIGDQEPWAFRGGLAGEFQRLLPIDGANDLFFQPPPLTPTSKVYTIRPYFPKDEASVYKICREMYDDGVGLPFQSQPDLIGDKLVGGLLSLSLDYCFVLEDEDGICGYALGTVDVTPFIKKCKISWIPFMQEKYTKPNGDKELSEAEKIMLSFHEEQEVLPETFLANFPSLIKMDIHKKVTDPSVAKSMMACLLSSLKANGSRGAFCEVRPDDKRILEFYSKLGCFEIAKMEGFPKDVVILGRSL
Experiment: OGA biochemical assay (inhibition of FM-GlcNAc hydrolysis, fluorescence)
Conditions: read-out: Enzymatic hOGA, pIC50 (converted)
reported_metric: IC50 (nM)

Example molecules with recorded IC50:
                                   molecule  reported_metric  unit_name  measured
0  Cc1cc(C[C@H]2CCCN(C(C)c3ccc4c(n3)OCC(=O)N4)C2)cc(C)n1 (single isomer, unassigned) [Product 60]             IC50         nM      3160
1  Cc1cc(C[C@H]2CCCN(Cc3cnc4c(c3)OCC(=O)N4)C2)cc(C)n1             IC50         nM      1260
2  Cc1cc(OC2CCCN(C(C)c3ccc4c(n3)OCCO4)C2)cc(C(F)(F)F)n1 (centres unmarked)             IC50         nM       126
3  Cc1cc([C@H]2CCCN([C@@H](C)c3ccc4c(c3)OCC4)C2)cc(C)n1 (single isomer, unassigned) [Product 5]             IC50         nM      3.16
4  Cc1cc(C[C@H]2CCCN(Cc3cnc4c(c3)OCCN4C)C2)cc(C)n1             IC50         nM       794

P: Cc1cc(C2CCCN(C(C)c3nc4c(cc3F)OCCO4)C2)cc(C)n1 (centres unmarked)
Q: COC1CCN(C(C)c2ccc3c(n2)OCCO3)CC1Cc1cc(C)nc(C)c1 (centres unmarked)
Qu. Param metric = IC50; output whichever of P , Q has the minimum value. Lab log: write the label of the selected item as the result.
Ans. P
(P: 6.31 nM, Q: 39.8 nM)
